# assay target: T1, major surface antigen 1 (SAG1) of Toxoplasma gondii (Toxoplasma gondii, UniProt P13664 48-336)
# T1 chain: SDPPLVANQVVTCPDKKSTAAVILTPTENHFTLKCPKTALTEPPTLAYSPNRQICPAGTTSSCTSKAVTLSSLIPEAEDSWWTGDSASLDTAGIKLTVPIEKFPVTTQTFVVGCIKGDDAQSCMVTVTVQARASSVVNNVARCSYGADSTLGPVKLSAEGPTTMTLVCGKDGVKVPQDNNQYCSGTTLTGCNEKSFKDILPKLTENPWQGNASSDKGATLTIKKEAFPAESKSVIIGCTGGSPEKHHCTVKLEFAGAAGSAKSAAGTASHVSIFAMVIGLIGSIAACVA
# protocol notes: SPR; Langmuir 1:1 fit
quantity name: pKd
For clarity, pKd is expressed as the negative log10 of concentration in mol/L.

1) scFv S1D4 (scFv, V domains shown) VH: QVQLQQSGAELVRPGTSVKISCKASGYTFTDYGMHWVKQRPGHGLEWIGIISTYSGDASYNQKFKGKATMTVDKSSSTAYMQLSSLTSEDSAVYYCARSSTWYYFDYWGQGTLVTVSA VL: DIQMTQTPSSLSASLGDRVTISCRASQDISNYLNWYQQKPDGTVKLLIYYTSRLHSGVPSRFSGSGSGTDYSLTISNLEPEDIATYYCQQGNTLPYTFGGGTKLEIK = 6.40
2) scFv S1B4 (scFv, V domains shown) VH: QVQLQQSGAELVRPGTSVKISCKASGYTFTDYGMHWVKQSHAKSLEWIGIISTYSGDASYNQKFKGKATMTVDKSSSTAYMQLSSLTSEDSAVYYCARSSTWYYFDYWGQGTLVTVSA VL: DIQMTQTPSSLSASLGDRVTISCRASQDISNYLNWYQQKPDGTVKLLIYYTSRLHSGVPSRFSGSGSGTDYSLTISNLEPEDIATYYCQQGNTLPYTFGGGTKLEIK = 6.49
3) scFv S1C4 (scFv, V domains shown) VH: QVQLQQSGAELVRPGVSVKISCKGSGYTFTDYGMHWVKQRPGHGLEWIGIISTYSGDASYNQKFKGKATMTVDKSSSTAYMELARLTSEDSAIYYCARSSTWYYFDYWGQGTTLTVSS VL: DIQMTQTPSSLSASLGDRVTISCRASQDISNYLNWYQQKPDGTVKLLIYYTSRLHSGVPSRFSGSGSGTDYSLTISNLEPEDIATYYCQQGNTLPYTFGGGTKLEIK = 7.21

Next, consider the following binder.
Give the measured pKd of scFv S1A4 (scFv, V domains shown) VH: QVQLQQSGAELVRPGVSVKISCKGSGYTFTDYGMHWVKQSHAKSLEWIGIISTYSGDASYNQKFKGKATMTVDKSSSTAYMELARLTSEDSAIYYCARSSTWYYFDYWGQGTTLTVSS VL: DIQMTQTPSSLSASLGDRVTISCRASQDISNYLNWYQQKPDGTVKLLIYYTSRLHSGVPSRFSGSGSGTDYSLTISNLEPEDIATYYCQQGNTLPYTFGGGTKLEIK .
6.63
